System: SPI1 type III protein secretion system (SopE-Bla secretion)
test summary: Primary assay: Type III protein secretion of the chimeric SopE-Bla polypeptide by Salmonella enterica (nitrocefin hydrolysis)
Type: cell-based
applied conditions: read-out: SopE IC50(uM)
Entries whose IC50 is below 6 µM take Yes; entries at or above 6 µM take No.

>>> print(df.to_string())
                                    compound  group_label
 0  COC(=O)c1ccc(-c2cc(NC(=O)c3ccc(C(F)(F)F)cc3)c(=O)n([C@@H](Cc3ccccc3)C(=O)O)c2)cc1 [Compound 6]           No
 1  O=C(Nc1cc(-c2ccc(Oc3ccccc3)cc2)cn(C(Cc2ccc(Cl)cc2)C(=O)O)c1=O)c1ccc(C(F)(F)F)cc1 (stereo not shown) [Compound 18]          Yes
 2  O=C(Nc1cc(-c2ccc(Oc3ccccc3)cc2)cn([C@@H](Cc2ccccc2)C(=O)O)c1=O)c1ccc(C(F)(F)F)cc1 [Compound 4]           No
 3  O=Cc1ccc(-c2cc(NC(=O)c3ccc(C(F)(F)F)cc3)c(=O)n([C@@H](Cc3ccccc3)C(=O)O)c2)cc1 [Compound 5]           No
 4  O=C(Nc1cc(-c2ccc(-c3ccccc3)cc2)cn(C(CSCc2ccccc2)C(=O)O)c1=O)c1ccc(C(F)(F)F)cc1 (stereo in doubt) [Compound 14]           No
 5  O=C(Nc1cc(-c2cccc3ccccc23)cn(C(Cc2ccc(Cl)cc2)C(=O)O)c1=O)c1ccc(C(F)(F)F)cc1 (stereo not shown) [Compound 19]          Yes
 6  O=C(Nc1cc(-c2ccc(C(F)(F)F)cc2)cn(C(Cc2ccc(Cl)cc2)C(=O)O)c1=O)c1ccc(Oc2ccccc2)cc1 (stereo not shown) [Compound 54]           No
 7  O=C(Nc1cc(-c2cccc(O)c2)cn(C(Cc2ccc(Cl)cc2)C(=O)O)c1=O)c1ccc(C(F)(F)F)cc1 (stereo not shown) [Compound 30]           No
 8  O=C(Nc1cc(-c2cc3ccccc3s2)cn(C(Cc2ccc(Cl)cc2)C(=O)O)c1=O)c1ccc(C(F)(F)F)cc1 (stereo not shown) [Compound 26]          Yes
 9  O=C(Nc1cc(-c2ccc(Oc3ccccc3)cc2)cn(C(CSCc2ccccc2)C(=O)O)c1=O)c1ccc(C(F)(F)F)cc1 (stereo in doubt) [Compound 15]           No
10  O=C(Nc1cc(-c2cccc3ccccc23)cn([C@@H](Cc2ccccc2)C(=O)O)c1=O)c1ccc(C(F)(F)F)cc1 [Compound 1]           No
11  CC(=O)Nc1cccc(-c2cc(NC(=O)c3ccc(C(F)(F)F)cc3)c(=O)n(C(Cc3ccc(Cl)cc3)C(=O)O)c2)c1 (stereo not shown) [Compound 28]           No
12  O=C(Nc1cc(-c2ccc(C(F)(F)F)cc2)cn(C(Cc2ccc(Cl)cc2)C(=O)O)c1=O)c1ccc(-c2ccccc2)cc1 (stereo not shown) [Compound 38]          Yes

----------
# key: entry, value: log10 IC50
Test system: SPI1 type III protein secretion system (SopE-Bla secretion)
test summary: Primary assay: Type III protein secretion of the chimeric SopE-Bla polypeptide by Salmonella enterica (nitrocefin hydrolysis)
Type: cell-based
applied conditions: read-out: SopE IC50(uM)
experimental readout: log10 IC50 (log10 of the value in µM)

>>> print(df.to_string())
                                    molecule  recorded_result
 0  O=C(Nc1cc(-c2ccc3ccccc3c2)cn([C@@H](Cc2ccccc2)C(=O)O)c1=O)c1ccc(C(F)(F)F)cc1             1.45
 1  O=C(Nc1cc(-c2ccc(Cl)cc2)cn(C(Cc2ccc(Cl)cc2)C(=O)O)c1=O)c1ccc(-c2ccccc2)cc1 (stereo not drawn)             0.88
 2  O=C(Nc1cc(-c2cccc3c2sc2ccccc23)cn(C(Cc2ccc(Cl)cc2)C(=O)O)c1=O)c1ccc(C(F)(F)F)cc1 (stereo not drawn)             0.20
 3  O=C(Nc1cc(-c2cc3ccccc3o2)cn(C(Cc2ccc(Cl)cc2)C(=O)O)c1=O)c1ccc(C(F)(F)F)cc1 (stereo not drawn)             0.57
 4  O=C(Nc1cc(-c2ccoc2)cn(C(Cc2ccc(Cl)cc2)C(=O)O)c1=O)c1ccc(-c2ccccc2)cc1 (stereo not drawn)             0.60
 5  O=C(Nc1cc(-c2ccccc2)cn(C(Cc2ccc(Cl)cc2)C(=O)O)c1=O)c1ccc(-c2ccccc2)cc1 (stereo not drawn)             0.36
 6  O=C(Nc1cc(-c2cccc(C(F)(F)F)c2)cn(C(Cc2ccc(Cl)cc2)C(=O)O)c1=O)c1ccc(-c2ccccc2)cc1 (stereo not drawn)             0.53
 7  O=C(Nc1cc(-c2cncnc2)cn([C@@H](Cc2ccccc2)C(=O)O)c1=O)c1ccc(C(F)(F)F)cc1             1.92
 8  O=C(Nc1cc(-c2ccc3[nH]ccc3c2)cn(C(Cc2ccc(Cl)cc2)C(=O)O)c1=O)c1ccc(-c2ccccc2)cc1 (stereo not drawn)             0.28
 9  CC(=O)c1ccc(-c2cc(NC(=O)c3ccc(C(F)(F)F)cc3)c(=O)n(C(Cc3ccc(Cl)cc3)C(=O)O)c2)s1 (stereo not drawn)             1.53
10  O=C(Nc1cc(-c2ccc(Oc3ccccc3)cc2)cn([C@@H](COCc2ccccc2)C(=O)O)c1=O)c1ccc(C(F)(F)F)cc1             1.00
11  O=C(Nc1cc(-c2ccc(Br)cc2)cn(C(Cc2ccc(Cl)cc2)C(=O)O)c1=O)c1ccc(-c2ccccc2)cc1 (stereo not drawn)             0.18
12  O=C(Nc1cc(-c2ccc(-c3ccccc3)cc2)cn(C(Cc2ccc(Cl)cc2)C(=O)O)c1=O)c1ccc(C(F)(F)F)cc1 (stereo not drawn)             0.30
13  O=C(Nc1cc(-c2ccc3ccccc3c2)cn([C@@H](COCc2ccccc2)C(=O)O)c1=O)c1ccc(C(F)(F)F)cc1             1.68
14  O=C(Nc1cc(-c2ccc3ccccc3c2)cn(C(Cc2ccc(Cl)cc2)C(=O)O)c1=O)c1ccc(-c2ccccc2)cc1 (stereo not drawn)             0.04
